Just for reference, ChEMBL document CHEMBL1201862 is where these values come from.

- System: HCT-15
Categories are assigned from the measured GI50 using these intervals: LOW: < 10 µM; MEDIUM: ≥ 10 µM and < 30 µM; HIGH: ≥ 30 µM

compound="COC(=O)/C=C\\[C@@H]1[C@H](C)N1S(=O)(=O)c1ccc(C)cc1 (some centres undefined)" assayedtarget=HCT-15 assignedlabel=HIGH
compound=Cc1c2ccccc2cc2cccc[n+]12 assayedtarget=HCT-15 assignedlabel=HIGH
compound=Cc1nc(C)c(N2CCN(C#N)CC2)c(O)n1 assayedtarget=HCT-15 assignedlabel=HIGH
compound="NS(=O)(=O)c1cc2c(cc1Cl)NC(Cc1ccccc1)NS2(=O)=O (centres undefined) [BENZYLHYDROCHLOROTHIAZIDE]" assayedtarget=HCT-15 assignedlabel=HIGH
compound="N#CC(NCc1cccc(CNC(C#N)c2ccccc2)c1)c1ccccc1 (centres undefined)" assayedtarget=HCT-15 assignedlabel=MEDIUM
compound=C1CCCN(NC2=NCCO2)CC1 assayedtarget=HCT-15 assignedlabel=HIGH
compound=CN1COc2c(n(C)c(=O)[nH]c2=O)C1 assayedtarget=HCT-15 assignedlabel=HIGH
compound="CO/N=C1\\CC(C)N2C(=O)C(C(C)C)NC(=O)C(NC(=O)c3c4nc5c(C(=O)NC6C(=O)NC(C(C)C)C(=O)N7C(C)CC(O)C7C(=O)N(C)CC(=O)N(C)C(C(C)C)C(=O)OC6C)ccc(C)c5oc-4c(C)c(=O)c3N)C(CO)OC(=O)C(C)N(C)C(=O)CN(C)C(=O)C12 (centres undefined)" assayedtarget=HCT-15 assignedlabel=LOW
compound="O=C(Nc1cccc(C(F)(F)F)c1)C(=O)C(C(=O)c1ccc(Cl)c(Cl)c1)C1OC(=O)c2ccccc21 (centres undefined)" assayedtarget=HCT-15 assignedlabel=HIGH
compound=[N-]=[N+]=CC(=O)c1ccccc1C#CCCc1ccccc1 assayedtarget=HCT-15 assignedlabel=MEDIUM
compound=Cn1c(-c2cccs2)cc(-c2ccsc2)c1-c1ccsc1 assayedtarget=HCT-15 assignedlabel=HIGH
compound="O=C1NC2(O)c3ccccc3C(=O)C2(O)N1c1ccccc1 (centres undefined)" assayedtarget=HCT-15 assignedlabel=HIGH
compound=CCCCCC(=O)OC[n+]1cccc(-c2c(COC(=O)NC(C)C)c(COC(=O)NC(C)C)c3n2CCC3)c1 assayedtarget=HCT-15 assignedlabel=HIGH
compound=Cc1nc(N)c(N2CCN(S(N)(=O)=O)CC2)c(O)n1 assayedtarget=HCT-15 assignedlabel=HIGH
compound=CC(C)c1cc(C(F)(F)F)nc(NNc2nc(C(C)C)cc(C(F)(F)F)n2)n1 assayedtarget=HCT-15 assignedlabel=HIGH
compound=ClCCN(CCCl)c1ccc(/C=N/Nc2ccnc3ccccc23)cc1 assayedtarget=HCT-15 assignedlabel=LOW
compound=O=c1c2ccccc2n2c(-c3ccc(O)cc3)nnc2n1-c1ccccc1 assayedtarget=HCT-15 assignedlabel=MEDIUM
compound="COc1ccc(C(=O)C(Br)C(Br)C(=O)O)cc1 (centres undefined)" assayedtarget=HCT-15 assignedlabel=HIGH
compound=CCc1cc2c(cc1O)CC[C@@H]1[C@@H]2CC[C@]2(C)[C@@H](O)CC[C@@H]12 assayedtarget=HCT-15 assignedlabel=LOW
compound=Cc1ccc(S(=O)(=O)N/N=C/c2c(O)ccc3ccccc23)cc1 assayedtarget=HCT-15 assignedlabel=MEDIUM
compound=Cc1ccc(-c2cc(-c3ccc(Cl)cc3)nc(/N=C3\C(=O)N(CN4CCCCC4)c4ccc(Cl)cc43)n2)cc1 assayedtarget=HCT-15 assignedlabel=MEDIUM
compound="COc1cc(C2SC(=N)Nc3c2c(C)nn3C(=O)c2ccccc2O)cc(OC)c1OC (centres undefined)" assayedtarget=HCT-15 assignedlabel=LOW
compound=CCCOc1cc2c(cc1O)CC[C@@H]1[C@@H]2CC[C@]2(C)[C@@H](O)CC[C@@H]12 assayedtarget=HCT-15 assignedlabel=LOW
compound="COc1ccc2c(c1)OCC1Cc3ccccc3OC21 (centres undefined)" assayedtarget=HCT-15 assignedlabel=HIGH
compound=Cc1nc(Nc2ccc(Cl)cc2)sc1C(=O)Nc1cccc2c(=O)[nH][nH]c(=O)c12 assayedtarget=HCT-15 assignedlabel=MEDIUM
compound=CSc1nnc(CCC(=O)Nc2c(C)cccc2C)o1 assayedtarget=HCT-15 assignedlabel=HIGH
compound=c1ccc(C[n+]2ccc3c(c2)CCCC3)cc1 assayedtarget=HCT-15 assignedlabel=HIGH
compound=NNC(=S)N/N=C(/C(=O)Nc1ccc([N+](=O)[O-])cc1)c1nc2ccc([N+](=O)[O-])cc2nc1O assayedtarget=HCT-15 assignedlabel=HIGH
compound="C=C1C(=O)C[C@@]23CCC[C@@]12CC(O)C3 (some centres undefined)" assayedtarget=HCT-15 assignedlabel=MEDIUM
compound=NC12CC3CC(C1)CC(C(=O)O)(C3)C2 assayedtarget=HCT-15 assignedlabel=HIGH
compound=Cc1cc(NS(=O)(=O)c2ccc(/N=N/c3c(Nc4ccccc4)nn(-c4ccc(S(=O)(=O)Nc5ccncn5)cc4)c3C)cc2)no1 assayedtarget=HCT-15 assignedlabel=HIGH
compound=Nc1nc(Cl)cc(NCCCCCCCCCCCCNc2cc(Cl)nc(N)n2)n1 assayedtarget=HCT-15 assignedlabel=LOW
compound="CCNC(=O)OCC1C2=C(C(=O)C(C)=C(N)C2=O)N2CC3C(N3C)C12OC (centres undefined)" assayedtarget=HCT-15 assignedlabel=MEDIUM
compound="COc1cc([C@@H]2c3cc4c(cc3[C@@H](OC(=O)c3ccc(N)cc3)C3COC(=O)[C@@H]32)OCO4)cc(OC)c1O (some centres undefined)" assayedtarget=HCT-15 assignedlabel=MEDIUM
compound=COc1ccc(/C=N/NC(=O)NCCCN(C)C)cc1 assayedtarget=HCT-15 assignedlabel=HIGH
compound="CC1C[C@]2(C[C@@H](C)C(=O)O2)O[C@@H]2CC3(C)[C@@H]4CCC5C(C)(C)OC(=O)C[C@H]6OO[C@]4(CC[C@]3(C)C12)CC56O (some centres undefined)" assayedtarget=HCT-15 assignedlabel=HIGH
compound="[N-]=[N+]=CC(=O)OCC(N)C(=O)O (centres undefined)" assayedtarget=HCT-15 assignedlabel=LOW

----------
- Test system: SK-MEL-2
- testDescription: NCI tumour cell line growth inhibition, 48 h
The source made the active and inactive calls. Rule as the data show it: active = GI50 up to about 1.1 µM and inactive = higher.
# reported GI50; entries follow
measurementType: GI50

compound=Cc1c2ccccc2cc2cccc[n+]12 measurementtype=GI50 observedresult="41.3 µM (inactive)"
compound=N#C/N=C(/N)NCN/C(N)=N\C#N measurementtype=GI50 observedresult="> 100 µM (inactive)"
compound=CC(C)Oc1c(C2(c3ccccc3O)SCCCS2)c(=O)c1=O measurementtype=GI50 observedresult="> 100 µM (inactive)"
compound="COc1cc(C2SC(=N)Nc3c2c(C)nn3C(=O)c2ccccc2O)cc(OC)c1OC (stereo unspecified)" measurementtype=GI50 observedresult="> 10 µM (inactive)"
compound=NS(=O)(=O)c1nnc(NS(=O)(=O)C(F)(F)F)s1 measurementtype=GI50 observedresult="> 100 µM (inactive)"
compound="CC(c1cccc2ccccc12)/[N+]([O-])=C/c1ccccc1 (stereo unspecified)" measurementtype=GI50 observedresult="> 100 µM (inactive)"

----------
- System: OVCAR-3
- testDescription: NCI tumour cell line growth inhibition, 48 h
The source made the active and inactive calls. Rule as the data show it: active = GI50 up to about 1.1 µM and inactive = higher.
Possible outcomes: active, inactive

compound=CCCCCCCCNC(=O)SCCCC assignedlabel=inactive
compound="O=C1C2=C(c3ccccc31)C(c1ccc(Cl)cc1)NC(S)=N2 (stereo not drawn)" assignedlabel=inactive
compound=CSc1nc(O)c(C#N)c(-c2ccccc2)n1 assignedlabel=inactive
compound="CC1(C)CCC2(C(=O)O)C(O)CC3(C)C(=CCC4C5(C)CCC(OC6OCC(O)C(O)C6OC6OCC(O)C(O)C6OC6OCC(O)C(OC7OC(CO)C(O)C(O)C7O)C6O)C(C)(C)C5CCC43C)C2C1 (stereo not drawn)" assignedlabel=inactive
compound="CCOC(=O)[C@H]1Nc2c(cccc2[N+](=O)[O-])C2c3ccccc3CC21 (stereo partly drawn)" assignedlabel=inactive
compound="C=C1C(=O)C23CC1C[C@H](OC(C)=O)[C@H]2C1(C)C(OC(C)=O)C[C@H](O)C(C)(C)[C@H]1C(=O)[C@@H]3OC(C)=O (stereo partly drawn)" assignedlabel=inactive
compound=COc1ccc2c(c1)/C(=C/CCN(C)C)c1ccccc1S2 assignedlabel=inactive
compound=Cc1cc(NC(=O)NC(=O)c2ccccc2NC(=O)CN(C)C)ccc1Oc1ncc(Br)cn1 assignedlabel=active
compound=O=C(NNC(=O)c1c(Cl)c(Cl)c(Cl)c(Cl)c1-c1nc2ccccc2[nH]1)c1ccc(Cl)cc1 assignedlabel=inactive
compound=CCCCc1ccc(N2C(=O)c3cc(C)cnc3S2(=O)=O)cc1 assignedlabel=inactive
compound=c1ccc(C[n+]2ccc3c(c2)CCCC3)cc1 assignedlabel=inactive
compound=Cc1ccccc1/N=N/c1cc(C)c(/N=N/c2c(O)ccc3ccccc23)cc1C assignedlabel=inactive
compound="O=C(O)C(O)C(O)C(O)C(O)CO.[Ba+2] (stereo not drawn)" assignedlabel=inactive
compound=Cc1sc(Nc2ccc(Nc3nc(-c4ccccc4)c(C)s3)cc2)nc1-c1ccccc1 assignedlabel=inactive
compound=C[C@H](C/C=C/C(C)(C)O)[C@H]1CC[C@@]2(C)[C@@H]3CC[C@H]4C(C)(C)[C@@H](O)CC[C@@]45C[C@@]35CC[C@]12C assignedlabel=inactive
compound=CN1COc2c(n(C)c(=O)[nH]c2=O)C1 assignedlabel=inactive
compound="CC1C(O)C2(Oc3cc4c(c5c3[C@@H](CC5O)[C@H]2C)CCC2Cc3nc5c(nc3C[C@@]42C)CC2CCC3C4=C[C@H]6O[C@@]7(O[C@@](C)(CO)C[C@@H]7O)C(C)[C@@]6(O)[C@]4(C)[C@@H](O)CC3[C@]2(C)C5)OC1(C)C (stereo partly drawn)" assignedlabel=active
compound=Cn1cco/c1=N/c1ccc(Cl)c(Cl)c1 assignedlabel=inactive
